Data credit: patent US9096544B2

assay: Test H: aqueous solubility by UV absorbance; assay type: physicochemical; settings: thermodynamic from solid; distilled water pH 5; 22° C.; read-out: Solubility (μM) at 22° C. Distilled water (pH 5)
MEASURED ENDPOINT: solubility (µM)
Numbers only, in µM.

Okay, here is my list. What is solubility for each of these?
1. O=C(O)C=Cc1ccc(-c2ccc(O)c(C34CC5CC(CC(C5)C3)C4)c2)c(Cl)c1 [Compound 3-Cl-AHPC, reference compound]
2. CCOC(=O)/C=C/c1ccc(-c2ccc(O)c(C34CC5CC(CC(C5)C3)C4)c2)nc1

Result:
1. 4.5
2. 7
